tested on: tobacco mosaic virus (TMV); experiment: Anti-TMV inactivation activity (inactivation mode), compound mixed with TMV before inoculation of tobacco leaves; type: in vivo; conditions: Tobacco mosaic virus, read-out: Anti-TMV activity, Inactivation effect (inhibition)
Would you please tag the item fulfilled when its inhibition at 100 µg/mL is 40% or above, and not fulfilled when it is below?

Ask | Identify whether the reported inhibition at 100 µg/mL of the following compound is 40% or greater: "O=C(N/C(=C\c1ccccc1)C(=O)N1CCC(O)(c2ccc(Br)cc2)CC1)C1CCCCC1"
Reply | fulfilled

Ask | Then this compound: "O=C(N/C(=C\c1ccccc1)C(=O)N1CCC(O)(c2ccc(Br)cc2)CC1)c1ccc(Br)cc1"
Reply | not fulfilled

Ask | Then this compound: "COC(=O)CCNC(=O)/C(=C/c1ccccc1)NC(=O)c1ccccc1"
Reply | not fulfilled

Ask | Then this compound: "O=C(N/C(=C\c1ccccc1)C(=O)N1CCC(O)(c2ccc(Br)cc2)CC1)c1ccc(C(F)(F)F)cc1"
Reply | not fulfilled

Ask | Then this compound: "Cc1snnc1/C=C(\NC(=O)c1ccccc1)C(=O)N1CCC(O)(c2ccc(Br)cc2)CC1"
Reply | not fulfilled

Ask | Then this compound: "Cc1nnsc1/C=C(\NC(=O)c1ccccc1)C(=O)O"
Reply | fulfilled

###

test system: tobacco mosaic virus (TMV); experiment: Anti-TMV inactivation activity (inactivation mode), compound mixed with TMV before inoculation of tobacco leaves; format: in vivo; conditions: Tobacco mosaic virus, read-out: Anti-TMV activity, Inactivation effect (inhibition)
Each item that follows carries a reported inhibition at 100 µg/mL.

{"Compound": "CNCC(=O)N[C@@H](CO)C(=O)N[C@H]1[C@H](O)[C@@H](O)[C@H](n2ccc(N)nc2=O)O[C@@H]1C(N)=O [Ningnanmycin, ningnanmycin, reference compound]", "inhibition at 100 µg/mL": "58%"}
{"Compound": "O=C(N/C(=C\\c1ccccc1)C(=O)N1CCC(O)(c2ccc(Br)cc2)CC1)c1ccccc1[N+](=O)[O-] [Compound 12]", "inhibition at 100 µg/mL": "28%"}
{"Compound": "COc1ccc(CNC(=O)/C(=C/c2ccccc2)NC(=O)c2ccccc2)cc1 [Compound 54]", "inhibition at 100 µg/mL": "28%"}
{"Compound": "O=C(N/C(=C\\c1ccccc1)C(=O)N1CCC(O)(c2ccc(Br)cc2)CC1)c1ccccc1 [Compound 76, reference compound]", "inhibition at 100 µg/mL": "29%"}
{"Compound": "O=C(O)/C(=C/c1ccccc1)NC(=O)C1CC1 [Compound 67]", "inhibition at 100 µg/mL": "57%"}

Ask | I'd like to know its inhibition at 100 µg/mL. The compound in question is Cc1snnc1/C=C(\NC(=O)c1ccccc1)C(=O)O [Compound 70]
Reply | 3%

Ask | Then this compound: Cc1nnsc1/C=C1\N=C(c2ccccc2)OC1=O [Compound 77]
Reply | 0%

Ask | Then this compound: COC(=O)CCCNC(=O)/C(=C/c1ccccc1)NC(=O)c1ccccc1 [Compound 36]
Reply | 0%

###

Each item that follows carries a reported inhibition at 100 µg/mL.
test system: tobacco mosaic virus (TMV); assay: Anti-TMV inactivation activity (inactivation mode), compound mixed with TMV before inoculation of tobacco leaves; assay type: in vivo; details: Tobacco mosaic virus, read-out: Anti-TMV activity, Inactivation effect (inhibition)
# output: bare number, implied unit %

// worked examples, inhibition at 100 µg/mL included
{"Molecule": "O=C(N/C(=C\\c1ccc(Cl)cc1)C(=O)N1CCC(O)(c2ccc(Br)cc2)CC1)c1ccccc1", "Assayed System": "tobacco mosaic virus (TMV)", "inhibition at 100 µg/mL (%)": 27}
{"Molecule": "O=C(O)/C(=C/c1ccccc1)NC(=O)c1ccc(C(F)(F)F)cc1", "Assayed System": "tobacco mosaic virus (TMV)", "inhibition at 100 µg/mL (%)": 3}
{"Molecule": "CC(C)(C)OC(=O)N1CCC(c2nc(/C=C(\\NC(=O)c3ccccc3)C(=O)NCC(F)F)cs2)CC1", "Assayed System": "tobacco mosaic virus (TMV)", "inhibition at 100 µg/mL (%)": 27}
{"Molecule": "O=C(N/C(=C\\c1ccccc1)C(=O)N1CCC(O)(c2ccc(Br)cc2)CC1)c1ccc(F)cc1", "Assayed System": "tobacco mosaic virus (TMV)", "inhibition at 100 µg/mL (%)": 50}
{"Molecule": "Cc1snnc1/C=C1\\N=C(c2ccccc2)OC1=O", "Assayed System": "tobacco mosaic virus (TMV)", "inhibition at 100 µg/mL (%)": 47}
{"Molecule": "O=C(NC(Cc1ccccc1)C(=O)N1CCC(O)(c2ccc(Br)cc2)CC1)C1CC1 (stereo not drawn)", "Assayed System": "tobacco mosaic virus (TMV)", "inhibition at 100 µg/mL (%)": 31}
{"Molecule": "COC(=O)[C@H]1CCCN1C(=O)/C(=C/c1ccccc1)NC(=O)c1ccccc1", "Assayed System": "tobacco mosaic virus (TMV)", "inhibition at 100 µg/mL (%)": 0}
{"Molecule": "O=C(N/C(=C\\c1ccccc1)C(=O)N1CCC(O)(c2ccc(Br)cc2)CC1)c1ccc([N+](=O)[O-])cc1", "Assayed System": "tobacco mosaic virus (TMV)", "inhibition at 100 µg/mL (%)": 62}
{"Molecule": "Cc1nnsc1/C=C(\\NC(=O)c1ccccc1)C(=O)N1CCC(O)(c2ccc(Br)cc2)CC1", "Assayed System": "tobacco mosaic virus (TMV)", "inhibition at 100 µg/mL (%)": 34}
{"Molecule": "O=C(N/C(=C\\c1ccccc1)C(=O)N1CCOCC1)c1ccccc1", "Assayed System": "tobacco mosaic virus (TMV)", "inhibition at 100 µg/mL (%)": 0}

Ask | I'd like to know its inhibition at 100 µg/mL. The molecule in question is "O=C(OCc1ccc(Br)cc1)/C(=C/c1ccccc1)NC(=O)c1ccccc1"
Reply | 13

Ask | Then this molecule: "O=C(NCc1ccc(Br)cc1)/C(=C/c1ccccc1)NC(=O)c1ccccc1"
Reply | 64

Ask | Then this molecule: "O=C(N/C(=C\c1ccco1)C(=O)N1CCC(O)(c2ccc(Br)cc2)CC1)C1CCCCC1"
Reply | 50

Ask | Then this molecule: "O=C(N/C(=C\c1ccc([N+](=O)[O-])cc1)C(=O)N1CCC(O)(c2ccc(Br)cc2)CC1)c1ccccc1"
Reply | 4

###

tested on: Phytophthora infestans (Mont) de Bary; experiment: microbe, parasite or virus in culture; format: cell-based; conditions: Phytophthora infestans, read-out: Fungicidal activity, inhibition, PI
Each item that follows carries a reported inhibition at 50 µg/mL.

// worked examples, inhibition at 50 µg/mL included
{"Molecule": "O=C(NCc1cccs1)/C(=C/c1ccccc1)NC(=O)c1ccccc1 [Compound 58]", "Recorded Result": "21%"}
{"Molecule": "CNC(=O)/C(=C/c1ccccc1)NC(=O)c1ccccc1 [Compound 32]", "Recorded Result": "16%"}
{"Molecule": "O=C(N/C(=C\\c1ccc([N+](=O)[O-])cc1)C(=O)N1CCC(O)(c2ccc(Br)cc2)CC1)c1ccccc1 [Compound 23]", "Recorded Result": "17%"}
{"Molecule": "O=C(N/C(=C\\c1ccccc1)C(=O)N1CCC(O)(c2ccc(Br)cc2)CC1)C1CCCCC1 [Compound 2]", "Recorded Result": "23%"}
{"Molecule": "CC(C)(C)OC(=O)N1CCC(c2nc(/C=C3\\N=C(c4ccccc4)OC3=O)cs2)CC1 [Compound 73]", "Recorded Result": "24%"}
{"Molecule": "O=C(N/C(=C\\c1ccccc1)C(=O)N1CCC(O)(c2ccc(Br)cc2)CC1)c1ccccc1 [Compound 76, reference compound]", "Recorded Result": "24%"}
{"Molecule": "Cc1nnsc1/C=C(\\NC(=O)c1ccccc1)C(=O)N1CCC(O)(c2ccc(Br)cc2)CC1 [Compound 27]", "Recorded Result": "24%"}
{"Molecule": "COc1ccc(CNC(=O)/C(=C/c2ccccc2)NC(=O)c2ccccc2)cc1 [Compound 54]", "Recorded Result": "2%"}

Ask | I'd like to know its inhibition at 50 µg/mL. The molecule in question is O=C(N/C(=C\c1ccco1)C(=O)N1CCC(O)(c2ccc(Br)cc2)CC1)c1ccccc1 [Compound 25]
Reply | 10%

Ask | Then this molecule: O=C(NCc1ccc(Br)cc1)/C(=C/c1ccccc1)NC(=O)c1ccccc1 [Compound 46]
Reply | 11%

Ask | Then this molecule: O=C(NC(Cc1ccccc1)C(=O)N1CCC(O)(c2ccc(Br)cc2)CC1)C1CCCCC1 (stereo not drawn) [Compound 50]
Reply | 26%

Ask | Then this molecule: O=C(NCc1ccccc1)/C(=C/c1ccccc1)NC(=O)c1ccccc1 [Compound 53]
Reply | 5%

Ask | Then this molecule: O=C(NCc1ccccc1Br)/C(=C/c1ccccc1)NC(=O)c1ccccc1 [Compound 52]
Reply | 16%

Ask | Then this molecule: Cc1snnc1/C=C1\N=C(c2ccccc2)OC1=O [Compound 78]
Reply | 26%

Ask | Then this molecule: Cc1nnsc1/C=C1\N=C(c2ccccc2)OC1=O [Compound 77]
Reply | 16%

Ask | Then this molecule: COC(=O)[C@H]1CCCN1C(=O)/C(=C/c1ccccc1)NC(=O)c1ccccc1 [Compound 37]
Reply | 5%

Ask | Then this molecule: O=C(N/C(=C\c1ccccc1)C(=O)N1CCC(O)(c2ccc(Br)cc2)CC1)c1ccc(Br)cc1 [Compound 8]
Reply | 26%

Ask | Then this molecule: O=C(N/C(=C\c1ccccc1)C(=O)N1CCC(O)(c2ccc(Br)cc2)CC1)c1ccc(F)cc1 [Compound 6]
Reply | 50%

Ask | Then this molecule: O=C(N/C(=C\c1ccccc1)C(=O)N1CCOCC1)c1ccccc1 [Compound 38]
Reply | 11%

Ask | Then this molecule: COc1ccc(/C=C(\NC(=O)c2ccccc2)C(=O)N2CCC(O)(c3ccc(Br)cc3)CC2)cc1 [Compound 16]
Reply | 33%

Ask | Then this molecule: O=C(NCc1cccc(Br)c1)/C(=C/c1ccccc1)NC(=O)c1ccccc1 [Compound 51]
Reply | 21%

Ask | Then this molecule: O=C(N/C(=C\c1ccccc1)C(=O)N1CCC(O)CC1)c1ccccc1 [Compound 45]
Reply | 24%

Ask | Then this molecule: CONC(=O)/C(=C/c1ccccc1)NC(=O)c1ccccc1 [Compound 33]
Reply | 8%

Ask | Then this molecule: Cc1nnsc1/C=C(\NC(=O)c1ccccc1)C(=O)O [Compound 71]
Reply | 21%

The reported measurements were obtained from patent US11166460B2.
